# EXPERIMENT_SUMMARY: Kinetic solubility by nephelometry
# Assay type: physicochemical
# CONDITION_PARAMETERS: DMSO
ASSAY_ENDPOINT: solubility

[[record]]
molecule = "O=C(O)CN1CCC(Oc2ccc([C@H]3CC[C@]4(CC3)OOC3(O4)C4CC5CC(C4)CC3C5)cc2)CC1 (stereo partly shown) [Compound 16]"
assay_endpoint = "solubility"
experimental_value = "< 1000 µg/mL"


----------
# EXPERIMENT_SUMMARY: In vitro metabolic stability in human liver microsomes
# Format: in vitro ADME
# CONDITION_PARAMETERS: 37 °C, 0.4 mg/mL protein, NADPH
Entries and their h CLint values follow.
ASSAY_ENDPOINT: h CLint

[[record]]
compound = "CS(=O)(=O)O.CS(=O)(=O)O.O=C(O)CNCc1ccc([C@H]2CC[C@]3(CC2)OOC2(O3)C3CC4CC2CC(C3)N4)cc1 (stereo partly drawn)"
experimental_value = "<7/<7 μL/(min mg) protein"

[[record]]
compound = "O=C(O)COc1ccc([C@H]2CC[C@]3(CC2)OOC2(O3)C3CC4CC2CC(C3)C4O)cc1 (stereo partly drawn)"
experimental_value = "<7/<7 μL/(min mg) protein"

[[record]]
compound = "CS(=O)(=O)O.O=C(O)C1CN(Cc2ccc([C@H]3CC[C@]4(CC3)OOC3(O4)C4CC5CC(C4)CC3C5)cc2)C1 (stereo partly drawn)"
experimental_value = "7 μL/(min mg) protein"

[[record]]
compound = "O=C(O)c1cc([C@H]2CC[C@]3(CC2)OOC2(O3)C3CC4CC(C3)CC2C4)ccc1O (stereo partly drawn)"
experimental_value = "108 μL/(min mg) protein"

[[record]]
compound = "O=C(O)COc1ccc([C@H]2CC[C@]3(CC2)OOC2(O3)C3CC4CC2CC(C3)C4(F)F)cc1 (stereo partly drawn)"
experimental_value = "23 μL/(min mg) protein"

[[record]]
compound = "O=C(O)CCCCOc1ccc([C@H]2CC[C@]3(CC2)OOC2(O3)C3CC4CC(C3)CC2C4)cc1 (stereo partly drawn)"
experimental_value = "< 7 μL/(min mg) protein"

[[record]]
compound = "CS(=O)(=O)O.O=C(O)CNCc1ccc([C@H]2CC[C@]3(CC2)OOC2(O3)C3CC4CC(C3)CC2C4)cc1 (stereo partly drawn)"
experimental_value = "< 7 μL/(min mg) protein"

[[record]]
compound = "O=C(O)CN1CCC(Oc2ccc([C@H]3CC[C@]4(CC3)OOC3(O4)C4CC5CC(C4)CC3C5)cc2)CC1 (stereo partly drawn)"
experimental_value = "<7/<7 μL/(min mg) protein"

[[record]]
compound = "CC(=O)NC1C2CC3CC1CC(C2)C31OO[C@]2(CC[C@@H](c3ccc(OCC(=O)O)cc3)CC2)O1 (stereo partly drawn)"
experimental_value = "10 μL/(min mg) protein"

[[record]]
compound = "O=C(O)c1cccc([C@H]2CC[C@]3(CC2)OOC2(O3)C3CC4CC(C3)CC2C4)c1 (stereo partly drawn)"
experimental_value = "12 μL/(min mg) protein"

[[record]]
compound = "O=C(O)COc1ccc([C@H]2CC[C@]3(CC2)OOC2(O3)C3CC4CC(C3)CC2C4)cc1C(=O)O (stereo partly drawn)"
experimental_value = "< 7 μL/(min mg) protein"

[[record]]
compound = "O=C([O-])C1CCN(CCOc2ccc([C@H]3CC[C@]4(CC3)OOC3(O4)C4CC5CC(C4)CC3C5)cc2)CC1.[Na+] (stereo partly drawn)"
experimental_value = "< 7 μL/(min mg) protein"

